molecular target: T1, human CD47 protein, His Tag (ACRObiosystems, Cat. No. CD7-H5227) (human, UniProt Q08722 19-139); experiment: Biacore SPR, antibody captured on CM5 chip, CD47-His protein, 25 C
T1 construct: Bought protein; also called hCD47-His Tag protein; not shown: His tag
T1 sequence (Q08722 19-139 limits assumed): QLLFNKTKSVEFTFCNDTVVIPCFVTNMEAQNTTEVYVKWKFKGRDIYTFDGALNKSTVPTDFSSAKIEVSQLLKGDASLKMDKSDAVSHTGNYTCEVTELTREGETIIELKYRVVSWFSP
PARAMETER: Kd (nM)
Respond numerically; units are nM and should not be typed.

Need Kd, item hz3F10-3.2 (antibody, human IgG4 S228P, kappa, V domains shown, Humanized 3F10, full-length heavy and light chains, made in CHO cells) VH: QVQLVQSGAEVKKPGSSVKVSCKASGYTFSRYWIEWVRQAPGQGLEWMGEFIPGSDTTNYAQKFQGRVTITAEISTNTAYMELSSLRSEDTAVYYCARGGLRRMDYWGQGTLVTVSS VL: DIQMTQSPSSLSASVGDRVTITCRASSSVSSTYLHWYQQKPGKAPKLLIYTTSTLASGVPSRFSGSGSGTSYTLTISSLQPEDFATYYCQQFSDSTWTFGQGTKLEIKR
1.15

Next up: hz3F10-1.2 (antibody, human IgG4 S228P, kappa, V domains shown, Humanized 3F10, full-length heavy and light chains, made in CHO cells) VH: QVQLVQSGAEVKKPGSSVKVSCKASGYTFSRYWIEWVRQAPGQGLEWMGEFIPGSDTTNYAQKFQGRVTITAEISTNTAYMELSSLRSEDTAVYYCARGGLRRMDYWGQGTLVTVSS VL: DIQMTQSPSSLSASVGDRVTITCRASSSVSSTYLHWYQQKPGKAPKLLIYTTSTLASGVPSRFSGSGSGTDFTLTISSLQPEDFATYYCQQFSDSTWTFGQGTKLEIKR
0.904

Next up: hz3F10-3.1 (antibody, human IgG4 S228P, kappa, V domains shown, Humanized 3F10, full-length heavy and light chains, made in CHO cells) VH: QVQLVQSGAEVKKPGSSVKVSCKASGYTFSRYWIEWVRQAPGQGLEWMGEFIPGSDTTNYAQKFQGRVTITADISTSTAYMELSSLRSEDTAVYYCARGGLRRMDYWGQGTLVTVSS VL: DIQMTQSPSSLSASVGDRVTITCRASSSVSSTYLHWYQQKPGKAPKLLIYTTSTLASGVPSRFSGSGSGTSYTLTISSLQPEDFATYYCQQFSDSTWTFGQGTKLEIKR
1.53

Next up: Xi3F10 (antibody, human IgG4 S228P, kappa, V domains shown, Chimeric: mouse VH on human IgG4 (S228P, EU) constant region, mouse VL on human kappa constant region; made in CHO cells; also called chimeric version of 3F10) VH: EVQLQQSVAELMKPGASVKIYCKATGYTFSRYWIEWVKQRPGHGLEWIGEFIPGSDTTNFNEKFKGKATFTAEISSNTAYMQLSSLTSEDSAVYFCARGGLRRMDYWGQGTSVTVSS VL: DIVMTQTPAIMSASPGEKVTMTCRASSSVSSTYLHWYQQKSGASPKLWIYTTSTLASGVPARFSGSGSGTSYSLTISSVEAEDAATYYCQQFSDSTWTFGGGTKLEIKR
0.767

Next up: hz3F10-2.2 (antibody, human IgG4 S228P, kappa, V domains shown, Humanized 3F10, full-length heavy and light chains, made in CHO cells) VH: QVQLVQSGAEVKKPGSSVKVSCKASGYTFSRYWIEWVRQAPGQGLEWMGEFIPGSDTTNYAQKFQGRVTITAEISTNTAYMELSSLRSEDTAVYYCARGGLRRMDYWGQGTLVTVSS VL: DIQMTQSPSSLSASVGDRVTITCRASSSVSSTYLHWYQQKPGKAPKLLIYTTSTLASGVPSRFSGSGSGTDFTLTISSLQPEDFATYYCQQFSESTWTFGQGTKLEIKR
0.779
